In this section, each of the binders is paired with its reported fluorescence index.
- System name: T1, class I MHC receptor HLA-A2 on T2 cells (human)
- T1 construct: detected on the cell surface with a mouse anti-human HLA-A2 monoclonal antibody and goat anti-mouse IgG F(ab')2-FITC; also called HLA-A2 receptor; HLA-A2 class I MHC
- Experimental details: T2 cells, anti-HLA-A2 flow cytometry after brefeldin A; Average; 4 hr
Quantity measured: fluorescence index (F.I.)

INSERT INTO assay_data (binder, recorded_measurement) VALUES
  ('LILGLVWTL [Filamin B peptide #1]', 2.67),
  ('GLAPLEVRV [Filamin B peptide #3]', 3.79),
  ('GQGDVMVFV [Filamin B peptide #6]', 1.47),
  ('SLQESGLKV [Filamin B peptide #4]', 1.28),
  ('KLILGLVWT [Filamin B peptide #7]', 1.16);
